Hello, the source for this data is patent US20260356869A1, in case you need it.

EXPERIMENT DESCRIPTION: BIRDS characterization: pH and temperature sensitivity of non-exchangeable (and -NH) proton chemical shifts by 1H NMR
Type: physicochemical
EXPERIMENTAL SETUP: proton A; 10 mM, pH 6.2-8.0, 298 K to 318 K, 11.7 T
# reported T sensitivity, non-exchangeable proton A; entries follow
PROPERTY: T sensitivity, non-exchangeable proton A (ppm/° C.)

                    structure_smiles_string    val
0  O=P(O)(O)CN1CCN(CP(=O)(O)O)CCN(CP(=O)(O)O)CCN(CP(=O)(O)O)CC1.[Fe+2]  0.345
1  O=C(CN1CCN(CC(=O)NCP(=O)(O)O)CCN(CC(=O)NCP(=O)(O)O)CCN(CC(=O)NCP(=O)(O)O)CC1)NCP(=O)(O)O.[Co+2]  0.576
2  O=C(CN1CCN(CC(=O)NCP(=O)(O)O)CCN(CC(=O)NCP(=O)(O)O)CCN(CC(=O)NCP(=O)(O)O)CC1)NCP(=O)(O)O.[Fe+2]  0.413
3  O=P(O)(O)CN1CCN(CP(=O)(O)O)CCN(CP(=O)(O)O)CC1.[Fe+2]  0.240
4  O=P(O)(O)CN1CCN(CP(=O)(O)O)CCN(CP(=O)(O)O)CCN(CP(=O)(O)O)CC1.[Co+2]  0.434
5  O=P(O)(O)CN1CCN(CP(=O)(O)O)CCN(CP(=O)(O)O)CC1.[Co+2]  0.948

* * *

EXPERIMENT DESCRIPTION: 23Na-NMR sodium sensing (shiftability and broadening)
Format: physicochemical
EXPERIMENTAL SETUP: 150 mM NaCl; negative = downfield, positive = upfield from unshifted sodium signal
# reported Shiftability (Sc); entries follow
PROPERTY: Shiftability (Sc) (ppm/mM)

>>> print(df.to_string())
                    structure_smiles_string  scale_unit     val
0  O=C(CN1CCN(CC(=O)NCP(=O)(O)O)CCN(CC(=O)NCP(=O)(O)O)CCN(CC(=O)NCP(=O)(O)O)CC1)NCP(=O)(O)O.[Co+2]      ppm/mM  -0.172
1  O=C(CN1CCN(CC(=O)NCP(=O)(O)O)CCN(CC(=O)NCP(=O)(O)O)CCN(CC(=O)NCP(=O)(O)O)CC1)NCP(=O)(O)O.[Fe+2]      ppm/mM  -0.477
2  O=P(O)(O)CN1CCN(CP(=O)(O)O)CCN(CP(=O)(O)O)CCN(CP(=O)(O)O)CC1.[Co+2]      ppm/mM  -0.207

* * *

EXPERIMENT DESCRIPTION: 23Na-NMR sodium sensing (shiftability and broadening)
Type: physicochemical
EXPERIMENTAL SETUP: 150 mM NaCl; negative = downfield, positive = upfield from unshifted sodium signal
PROPERTY: Shiftability (Sc)

>>> df
                    structure_smiles_string           property            val
0  O=P(O)(O)CN1CCN(CP(=O)(O)O)CCN(CP(=O)(O)O)CCN(CP(=O)(O)O)CC1.[Fe+2]  Shiftability (Sc)  +0.688 ppm/mM
1  O=P(O)(O)CN1CCN(CP(=O)(O)O)CCN(CP(=O)(O)O)CC1.[Co+2]  Shiftability (Sc)  +0.140 ppm/mM
2  O=P(O)(O)CN1CCN(CP(=O)(O)O)CCN(CP(=O)(O)O)CC1.[Fe+2]  Shiftability (Sc)  +0.318 ppm/mM
